Where these numbers come from: PubChem BioAssay AID1159580

Recorded measurements of normalized growth, one per entry
assay text: chemical genetic growth profiling, strain panel (AID 1159580);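 note: tested at 20 µM; growth read once vehicle control cultures reached saturation at 30 °C; 1 = growth at the plate median or of vehicle wells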
run parameters: S. cerevisiae deletion strains, growth OD, locus YKR001C, strain vps1, hits give low values
The whole screen tested about 5,500 compounds, of which about 2,000 (36%) were called active. Inconclusive results (about 18%) are left out. This is one part of the list.
// no unit, no text: just the number

* COc1cc(OC)c2c(=O)c(OC)c(-c3ccc(OC)c(OC)c3)oc2c1 | 0.994
* CCCCCc1c2c(cc(O)c1C(=O)O)OC(=O)c1c(cc(OC)cc1C(=O)CCCC)O2 | 0.985
* COC(=O)[C@]1(C)CCC[C@]2(C)c3ccc(C(C)C)cc3C(=O)CC12 (stereo partly specified) | 1.01
* CCCCOc1cc(C(=O)NCCN(CC)CC)c2ccccc2n1 | 1.01
* CC(=O)Oc1ccc2c(c1C(C)C)CCC1C(C)(C)CCC[C@]21C (stereo partly specified) | 1.01

Next molecule, please.
Q) Which measured normalized growth value corresponds to C[C@@H]1O[C@@H](OC[C@H]2OC(Oc3c(-c4ccc(OCCO)c(OCCO)c4)oc4cc(OCCO)cc(O)c4c3=O)[C@H](O)[C@@H](O)[C@@H]2O)[C@H](O)[C@H](O)[C@H]1O (stereo partly specified) ?
A) 0.994

###

Recorded measurements of normalized growth, one per entry
assay text: chemical genetic growth profiling, strain panel (AID 1159580)
run parameters: S. cerevisiae deletion strains, growth OD, locus YDL192W, strain arf1, hits give low values
About 2,000 (36%) of roughly 5,500 compounds were called active. Another 18% or so got no clear call; they are omitted. The list shows a part of the results.
// no unit, no text: just the number

Observe how each entry below is paired with its result.
- O=C1C=C2C(=CCOC2O)O1 (centres undefined): 0.789
- CCCCCCC(C)OC(=O)COc1ccc(Cl)cc1Cl (centres undefined): 1
- NC(=NCCC[C@H](N)C(=O)O)N[N+](=O)[O-]: 1.01

Q) Which measured normalized growth value corresponds to Cc1ccccc1OCC(O)CO (centres undefined) ?
A) 0.991

###

Recorded measurements of normalized growth, one per entry
assay text: chemical genetic growth profiling, strain panel (AID 1159580)
run parameters: S. cerevisiae deletion strains, growth OD, locus YDR162C, strain NBP2, hits give low values
Among all 5,500 compounds or so, about 2,000 (36%) were called active. Roughly 18% stayed inconclusive and do not appear here. Some of the results follow.
// no unit, no text: just the number

• COc1ccc(Cl)cc1C(=O)NCCc1ccc(S(=O)(=O)NC(=O)NC2CCCCC2)cc1 = 0.903
• COc1ccc(-c2cc(=O)c3c(O)cc(O[C@H]4O[C@H](CO[C@@H]5O[C@@H](C)[C@H](O)[C@@H](O)[C@H]5O)[C@@H](O)[C@H](O)[C@H]4O)cc3o2)cc1 = 1.01
• CC/C(=C(/CC)c1ccc(O)cc1)c1ccc(O)cc1 = 0.754

Q) Which measured normalized growth value corresponds to O=C(O)C1=C[C@@H](O)[C@@H](O)[C@H](O)C1 ?
A) 1.01

Q) Which measured normalized growth value corresponds to CN(C)c1nc(N)c(C(=O)N=C(N)N)nc1Cl ?
A) 0.985

###

assay text: chemical genetic growth profiling, strain panel (AID 1159580)
run parameters: S. cerevisiae deletion strains, growth OD, locus YPL241C, strain CIN2
Hit rate of the full screen: of about 5,500 compounds, about 2,000 (36%) were called active. Inconclusive results (about 18%) are left out. Cut-off read from the data, not from the text of the source: active = normalized growth mostly below about 0.91 (no sharp cut-off); inconclusive = no clear call, values can overlap the other calls; inactive = mostly above about 0.92. Some of the results follow.
Outcome field: choose from active, inactive

Sample answers from the record:
• COC(=O)CSc1nc2ccc(Cl)cc2s1 = active
• COc1ccc(-c2cc(=O)c3c(O)cc(O[C@@H]4O[C@H](CO[C@H]5O[C@H](C)[C@@H](O)[C@H](O)[C@@H]5O)[C@@H](O)[C@H](O)[C@H]4O)cc3o2)cc1O = inactive
• CCCCC1C(=O)N(c2ccccc2)N(c2ccc(O)cc2)C1=O (stereo unspecified) = inactive
• CCCCCCCCCCCC1=C(O)C(=O)C=C(O)C1=O = active
• O=c1cc(-c2ccc(O)cc2)oc2cc(O[C@@H]3O[C@H](CO)[C@@H](O)[C@H](O)[C@H]3O)cc(O)c12 = inactive

Now consider a different compound.
Q) Answer briefly: the call reported for COC(=O)[C@]1(C)CCC[C@]2(C)c3ccc(C(C)C)cc3C(=O)CC12 (stereo partly specified) in this assay.
A) inactive

###

assay text: chemical genetic growth profiling, strain panel (AID 1159580)
run parameters: S. cerevisiae deletion strains, growth OD, locus YDR363W, strain ESC2, hits give low values
About 2,000 (36%) of roughly 5,500 compounds were called active. About 18% were inconclusive and are not listed. The list shows a part of the results.
Lab note: cut-off is 1. Strictly less in normalized growth is met. Exactly 1 or more is not met.

- CC[C@H](NC(=O)c1c(C)c(-c2ccccc2)nc2ccccc12)c1ccccc1: not met
- O=C1NC(=O)C(c2ccccc2[N+](=O)[O-])=C1Nc1ccc(O)c(Cl)c1: met
- O=c1c(O)c(-c2cc(O)c(O)c(O)c2)oc2cc(O)cc(O)c12: not met

Q) Please check: normalized growth for FC(F)(F)c1cc(CO[C@H]2CCCN[C@H]2c2ccccc2)cc(C(F)(F)F)c1 , strictly under 1 or not?
A) met

###

assay text: chemical genetic growth profiling, strain panel (AID 1159580);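 note: tested at 20 µM; growth read once vehicle control cultures reached saturation at 30 °C; 1 = growth at the plate median or of vehicle wells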
run parameters: S. cerevisiae deletion strains, growth OD, locus YAL013W, strain DEP1
The whole screen tested about 5,500 compounds, of which about 2,000 (36%) were called active. Another 18% or so got no clear call; they are omitted. No stated cut-off is given here; in the data, active means normalized growth mostly below about 0.91 (no sharp cut-off); inconclusive means no clear call, values can overlap the other calls; inactive means mostly above about 0.92. The list shows a part of the results.
Outcome field: choose from 1 = active, -1 = inactive

- CCC1OC(=O)[C@H](C)C(=O)[C@H](C)[C@@H](OC2O[C@H](C)C[C@H](N(C)C)[C@H]2O)[C@](C)(OC)C2(CCCn3cnc(-c4cccnc4)c3)C[C@@H](C)C(=O)[C@H](C)[C@H]3N(C2)C(=O)O[C@]13C (stereo partly drawn): -1
- CCC(CO)NC(=O)C1C=C2c3cccc4[nH]cc(c34)CC2N(C)C1 (stereo not drawn): -1
- O=C1NN=C2C3CC4CC12CC1(C3)C(=O)NN=C41: -1
- CC1(C)C2CC(=O)[C@]3(C)C(CC[C@@]4(C)[C@H](c5ccoc5)OC(=O)[C@H]5O[C@]543)[C@@]2(C)C(=O)C[C@H]1O (stereo partly drawn): -1
- O=C(OC1Cc2c(O)cc(O)cc2OC1c1cc(=O)c(O)c2c(O)c(O)cc(C3Oc4cc(O)cc(O)c4CC3O)c2c1)c1cc(O)c(O)c(O)c1 (stereo not drawn): 1
- C=C[C@H]1CN2CC[C@H]1C[C@@H]2[C@@H](OC(=O)OCC)c1ccnc2ccc(OC)cc12: -1

Q) Answer briefly: the call reported for CC(C)CC1NC(=O)NC1=O (stereo not drawn) in this assay.
A) -1

Q) Answer briefly: the call reported for C[N+](C)(C)CC(O)CC(=O)O (stereo not drawn) in this assay.
A) -1

###

assay text: chemical genetic growth profiling, strain panel (AID 1159580);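 note: tested at 20 µM; growth read once vehicle control cultures reached saturation at 30 °C; 1 = growth at the plate median or of vehicle wells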
run parameters: S. cerevisiae deletion strains, growth OD, locus YLR342W, strain FKS1, hits give low values
The campaign covered roughly 5,500 compounds. About 2,000 (36%) were called active. Not shown: some 18% with an inconclusive outcome. The list shows a part of the results.
outcome measure: normalized growth
// no unit, no text: just the number

Observe how each entry below is paired with its result.
- COc1ccccc1/C=C\C(=O)O: 0.996
- CCN(Cc1ccncc1)C(=O)C(CO)c1ccccc1 (stereo not given): 1.02
- OCC(O)C(O)C(O)C(O)C(O)CO (stereo not given): 0.993
- CC(C)(C)NCC(O)c1cc(Cl)c(N)c(Cl)c1 (stereo not given): 1

Next compound, please.
Q) Which measured normalized growth value corresponds to COC1=CC(=O)C(C(=O)c2ccccc2)=CC1=O ?
A) 0.983

###

Recorded measurements of normalized growth, one per entry
assay text: chemical genetic growth profiling, strain panel (AID 1159580);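 note: tested at 20 µM; growth read once vehicle control cultures reached saturation at 30 °C; 1 = growth at the plate median or of vehicle wells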
run parameters: S. cerevisiae deletion strains, growth OD, locus YNL250W, strain rad50, hits give low values
Screen size: about 5,500 compounds; about 2,000 (36%) were called active. Roughly 18% stayed inconclusive and do not appear here. This is one part of the list.
// no unit, no text: just the number

* CCCCCc1c2c(cc(O)c1C(=O)O)OC(=O)c1c(cc(OC)cc1C(=O)CCCC)O2 | 0.991
* NC(N)=NC(=O)c1nc(Cl)c(N)nc1N | 1.02
* Cc1cc(C2CCCCC2)n(O)c(=O)c1 | 0.0854

Q) Which measured normalized growth value corresponds to CCC(=O)c1c(O)cc(O)cc1O ?
A) 0.981

Q) Which measured normalized growth value corresponds to CNC(=O)Oc1cccc2c1OC(C)(C)O2 ?
A) 0.997

Q) Which measured normalized growth value corresponds to CN(C)c1nc(N)c(C(=O)N=C(N)N)nc1Cl ?
A) 1.01
